System: Streptococcus mutans
Experiment: Activity against planktonic Streptococcus mutans LMG 14558
Assay type: functional

>  <Compound>
COc1cc(O)c2c(c1)C(=O)c1cc(C)cc(O)c1C2=O

>  <MIC>
> 250 µg/mL

$$$$
>  <Compound>
O=C1c2cccc(O)c2C(=O)c2c(O)cc(CO)cc21

>  <MIC>
> 250 µg/mL

$$$$
>  <Compound>
Cc1cc(O)c2c(c1)C(=O)c1cc(O)cc(O)c1C2=O

>  <MIC>
> 250 µg/mL

$$$$
>  <Compound>
O=C(O)c1cc(O)c2c(c1)C(C1c3cccc(O)c3C(=O)c3c(O)cc(C(=O)O)cc31)c1cccc(O)c1C2=O (stereo not drawn)

>  <MIC>
> 250 µg/mL

$$$$
>  <Compound>
N=C(NCCCCCCNC(=N)NC(=N)Nc1ccc(Cl)cc1)NC(=N)Nc1ccc(Cl)cc1

>  <MIC>
2 µg/mL

$$$$
>  <Compound>
Cc1c(C(=O)O)c(O)cc2c1C(=O)c1c(O)c([C@@H]3O[C@H](CO)[C@@H](O)[C@H](O)[C@H]3O)c(O)c(O)c1C2=O

>  <MIC>
> 250 µg/mL

$$$$
>  <Compound>
Oc1cc(Cl)ccc1Oc1ccc(Cl)cc1Cl

>  <MIC>
16 µg/mL

$$$$
>  <Compound>
O=C1c2cccc(O)c2C(=O)c2c(O)cccc21

>  <MIC>
250 µg/mL

$$$$

Cited source: ChEMBL document CHEMBL1145538
